Property: % Max Binding; scope: individual binders
# Target entity: T1, Human ROR1 (receptor tyrosine kinase-like orphan receptor 1) (human, UniProt Q01973 30-937)
# T1 construct: also called hROR1; K562/ROR1
# T1 sequence (Q01973 30-937): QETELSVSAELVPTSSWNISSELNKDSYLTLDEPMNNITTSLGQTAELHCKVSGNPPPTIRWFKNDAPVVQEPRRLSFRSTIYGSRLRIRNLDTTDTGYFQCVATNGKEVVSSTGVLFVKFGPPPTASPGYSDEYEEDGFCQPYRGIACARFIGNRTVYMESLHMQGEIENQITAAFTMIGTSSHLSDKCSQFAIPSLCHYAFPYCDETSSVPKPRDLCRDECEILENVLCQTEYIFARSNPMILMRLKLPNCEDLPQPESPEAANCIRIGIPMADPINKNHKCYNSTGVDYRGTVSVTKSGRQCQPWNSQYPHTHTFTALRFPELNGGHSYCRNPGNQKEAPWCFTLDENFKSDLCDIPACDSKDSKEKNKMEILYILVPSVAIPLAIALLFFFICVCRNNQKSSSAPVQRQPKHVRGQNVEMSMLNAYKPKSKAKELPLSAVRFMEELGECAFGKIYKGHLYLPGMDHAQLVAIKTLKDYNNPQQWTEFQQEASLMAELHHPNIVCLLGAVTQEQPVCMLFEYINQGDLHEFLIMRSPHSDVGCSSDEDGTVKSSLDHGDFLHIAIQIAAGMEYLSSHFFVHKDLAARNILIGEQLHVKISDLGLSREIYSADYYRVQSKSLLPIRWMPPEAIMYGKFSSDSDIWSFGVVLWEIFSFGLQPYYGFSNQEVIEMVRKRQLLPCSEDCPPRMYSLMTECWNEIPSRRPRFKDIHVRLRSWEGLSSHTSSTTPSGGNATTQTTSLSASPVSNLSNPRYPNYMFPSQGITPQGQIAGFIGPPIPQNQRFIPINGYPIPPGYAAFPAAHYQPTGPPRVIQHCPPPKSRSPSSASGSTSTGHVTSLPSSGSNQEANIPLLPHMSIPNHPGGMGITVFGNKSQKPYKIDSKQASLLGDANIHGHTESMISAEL
# Experimental protocol: flow cytometry on ROR1-expressing cells; predicted plateau relative to R12 scFv = 100%
Experimental endpoint: % Max Binding (%)

[
  {
    "Binder": "Clone V95 (VHH, human VH-only single-domain antibody, no VL) VHH: QVQLVESGGGLVKPGGSLRLSCAASGFTFSNAWMSWVRQAPGKGLEWVGRIKSKTDGGTTDYAAPVKGRFTISRDDSKKTLYLQMNSLKTEDTAVYYCARGSGELRFLESYYFDYWGQGTLVTVSS",
    "Experimental endpoint": "% Max Binding",
    "Measured value": 61
  },
  {
    "Binder": "Clone V163 (VHH, human VH-only single-domain antibody, no VL) VHH: QVQLVESGGGLVKPGGSLRLSCAASGFTFSNAWMSWVRQAPGKGLEWVGRIKSKTDGGTTDYAAPVKGRFTISRDDSKNTLYLQMNSLKTEDTAVYYCARQGDSSSWYVEVYYFDYWGQGTLVTVSS",
    "Experimental endpoint": "% Max Binding",
    "Measured value": 122
  },
  {
    "Binder": "Clone V316 (VHH, human VH-only single-domain antibody, no VL) VHH: EVQLVESGGGLVRPGGSLRLSCAASGLTFSRTWMSWVRQAPGKGLEWVASINDDGSEKYYVDSVKGRFTISRDNARNSLYLQMNRLRAEDTAVYYCARVDSERFLEWYYFDYWGQGTLVTVSS",
    "Experimental endpoint": "% Max Binding",
    "Measured value": 78
  },
  {
    "Binder": "Clone V312 (VHH, human VH-only single-domain antibody, no VL) VHH: EVQLVESGGGLVKPRGSLRLSCAASGFTFSNAWMSWVRQAPGKGLEWVGRIKSKTDGGTTDYAAPVKGRFTISRDDSKNTLYLQMNSLKTEDTAVYYCARTSRGRFLEWLLFDYWGQGTLVTVSS",
    "Experimental endpoint": "% Max Binding",
    "Measured value": 29
  },
  {
    "Binder": "Clone V397 (VHH, human VH-only single-domain antibody, no VL) VHH: QITLKESGGGLVQPGGSLRLSCAASGFTFSNAWMSWVRQAPGKGLEWVGRIKSKTDGGTTDYAAPLKGRFTISRDDSKNTLYLQMNSLKTEDTAVYYCARAKGLWFGESYYFDYWGQGTLVTVSS",
    "Experimental endpoint": "% Max Binding",
    "Measured value": 18
  },
  {
    "Binder": "Clone V278 (VHH, human VH-only single-domain antibody, no VL) VHH: QITLKESGGGLVQPGGSLRLSCAASGFTFSSYAMSWVRQAPGKGLEWVSAISGSGGSTYYADSVKGRFTISRDNSKNTLYLQMNSLRAEDTAVYYCAKERSRWGDNWFDPWGQGTLVTVSS",
    "Experimental endpoint": "% Max Binding",
    "Measured value": 22
  },
  {
    "Binder": "Clone V224 (VHH, human VH-only single-domain antibody, no VL) VHH: QVQLVESGGGLVKPGGSLRLSCAASGFTFINAWMSWVRQAPGKGLEWVGRIKSKTDGGTTDYAAPVKGRFTISRDDSKNTLYLQMNSLKTEDTAVYYCARTYSSSWYESLLFDYWGQGTLVTVSS",
    "Experimental endpoint": "% Max Binding",
    "Measured value": 74
  },
  {
    "Binder": "Clone V70 (VHH, human VH-only single-domain antibody, no VL) VHH: QVQLLESGGGLVQPGRSLRLSCTASGFTFGDYAMSWVRQAPGKGLEWVSSISGSGRSTDHADYVKGRFTISRDNSKNTVYLQMNRLRAEDTAVYYCAKVSNYEYYFDYWAQGTLVTVSS",
    "Experimental endpoint": "% Max Binding",
    "Measured value": 92
  },
  {
    "Binder": "Clone V420 (VHH, human VH-only single-domain antibody, no VL) VHH: QVQLVESGGGLVQPGGSLRLSCAASGFTFSSYWMSWVRQAPGKGLEWVANIKQDGSEKYYVDSVKGRFTISRDNAKNSLYLQMNSLRAEDTAVYYCARVNGGEYYFDYWGQGTLVTVSS",
    "Experimental endpoint": "% Max Binding",
    "Measured value": 74
  },
  {
    "Binder": "Clone V282 (VHH, human VH-only single-domain antibody, no VL) VHH: EVQLVESGGGLVQPGGSLRLSCAASGFTFSSYWMSWVRQAPGKGLEWVANIKQDGSEKYYVDSVKGRFTISRDNAKNSLYLQMNSLRAEDTAVYYCARVRGSEYYFDYWGQGTLVTVSS",
    "Experimental endpoint": "% Max Binding",
    "Measured value": 64
  },
  {
    "Binder": "Clone V331 (VHH, human VH-only single-domain antibody, no VL) VHH: QVQLQQWGAGLLKPSETLSLTCAVYGGSFSGYYWSWIRQPPGKGLEWIGKINHSGSTNYNPSLKSRVTISVDTSKNQFSLKLSSVTAADTAVYYCARGQIAAHVWGWFDPWGQGTLVTVSS",
    "Experimental endpoint": "% Max Binding",
    "Measured value": 70
  }
]
